Reported z-score values are given for each entry in this list.
Molecular target: NADPH oxidase 4 (Homo sapiens) (UniProt Q9NPH5)
Sequence (Q9NPH5 whole entry, looked up): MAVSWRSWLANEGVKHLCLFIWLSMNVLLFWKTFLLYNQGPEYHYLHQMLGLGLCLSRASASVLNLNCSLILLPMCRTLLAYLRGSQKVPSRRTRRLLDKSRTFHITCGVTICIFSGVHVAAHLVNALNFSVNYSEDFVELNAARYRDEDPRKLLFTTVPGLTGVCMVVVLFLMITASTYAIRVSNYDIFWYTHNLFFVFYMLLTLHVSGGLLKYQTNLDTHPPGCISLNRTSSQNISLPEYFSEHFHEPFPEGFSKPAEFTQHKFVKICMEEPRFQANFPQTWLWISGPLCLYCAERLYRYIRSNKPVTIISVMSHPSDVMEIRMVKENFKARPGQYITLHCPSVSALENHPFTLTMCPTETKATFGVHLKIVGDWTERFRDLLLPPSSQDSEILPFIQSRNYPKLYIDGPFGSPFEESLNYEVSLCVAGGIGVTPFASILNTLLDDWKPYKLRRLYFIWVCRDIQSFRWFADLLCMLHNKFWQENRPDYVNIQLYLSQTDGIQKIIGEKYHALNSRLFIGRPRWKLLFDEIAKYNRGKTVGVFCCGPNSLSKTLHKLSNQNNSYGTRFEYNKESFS
Assay: NOX4-dependent H2O2 signal modulators, primary screen, NOX inhibitor project, cell-based, HEK293-NOX4, tetracycline-induced, Amplex Red fluorescence (AID 1160)
Settings: 45 min, higher = more signal, called active from +8 up or from −8 down
Calls of active or inactive are those of the source.

Consider the reported z-score for these compounds:
• CN(C)CCCNC(=O)[C@@]1(C)c2ccccc2C(=O)N(Cc2cc(C(F)(F)F)cc(C(F)(F)F)c2)[C@H]1c1ccc(CO)cc1 = -1.35 (inactive)
• C[C@]12C(=O)N(CCCCCCO)[C@@H]3C(=O)N(c4ccc(Cl)cc4)CC=CC31O[C@@H]1/C=C\CCCOC(=O)C12 (stereo partly specified) = 0.428 (inactive)
• O=C1O[C@@H](c2ccccc2)[C@@H](c2ccccc2)N2[C@@H](c3ccc(O)cc3)[C@]3(C(=O)Nc4ccc(C#CC5=CCCCC5)cc43)[C@@H](C(=O)N3CCN(c4ncccn4)CC3)[C@H]12 = 0.278 (inactive)
• C=CCOC(=O)[C@@H]1[C@H]2C(=O)O[C@H](c3ccccc3)[C@H](c3ccccc3)N2[C@H](c2ccc(OCCOC(=O)[C@H]3C[C@H]4C(=O)N[C@@H](CCCCN(C)C)C(=O)N4[C@H]3c3cccc(OCCO)c3)cc2)[C@@]12C(=O)Nc1ccc(I)cc12 = 1.18 (inactive)
• CC(C)(C)OC(=O)CC[C@]1(C(=O)NCCN2CCOCC2)N=C(c2ccc(OCCCO)cc2)O[C@H]1c1ccccc1N=[N+]=[N-] = 1.62 (inactive)

Consider the additional compound presented here.
Complete the entry with z-score for CN(C)CCCNC(=O)[C@@]1(c2ccc([N+](=O)[O-])cc2)CC(=O)N(CC23CC4CC(CC(C4)C2)C3)[C@@H]1c1ccc(CO)cc1
-2.09 (inactive)
